Test system: human cathepsin L versus Trypanosoma cruzi cruzipain
Assay: Selectivity ratio of IC50 for reversible inhibition of human cathepsin L to IC50 for reversible inhibition of Trypanosoma cruzi cruzipain
Type: toxicity
Details: read-out: Ratio IC50
experimental-readout: selectivity ratio
// print number alone

Problem: Data request, read-out selectivity ratio, for `CC(C)(F)C[C@H](N[C@@H](c1ccc(-c2ccc(N3CCNCC3)cc2)cc1)C(F)(F)F)C(=O)NCC#N`
Solution: 58

###

Biological target: Procathepsin L (Homo sapiens, UniProt P07711)
Sequence (P07711 whole entry): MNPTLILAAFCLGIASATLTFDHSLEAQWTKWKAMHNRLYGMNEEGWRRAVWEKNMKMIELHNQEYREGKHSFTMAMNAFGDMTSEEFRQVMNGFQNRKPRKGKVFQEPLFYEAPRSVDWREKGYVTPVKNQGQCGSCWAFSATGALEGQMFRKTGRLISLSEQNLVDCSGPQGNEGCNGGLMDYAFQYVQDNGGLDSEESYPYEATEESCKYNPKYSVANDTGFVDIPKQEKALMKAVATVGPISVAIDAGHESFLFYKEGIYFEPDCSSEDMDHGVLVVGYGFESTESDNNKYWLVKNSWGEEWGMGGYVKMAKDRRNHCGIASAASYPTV
experimental-readout: IC50 (nM)
Unit nM implied. Number only.

Problem: Data request, read-out IC50, for `CC(C)(F)C[C@H](N[C@@H](c1ccc(-c2ccc(N3CCNCC3)cc2)cc1)C(F)(F)F)C(=O)NCC#N`
Solution: 47

###

Target: UniProtKB P07858
experimental-readout: IC50 (µM)
Unit µM implied. Number only.

Problem: For UniProtKB P07858, provide IC50 of `CC(C)(F)C[C@H](N[C@@H](c1ccc(-c2ccc(N3CCNCC3)cc2)cc1)C(F)(F)F)C(=O)NCC#N` please.
Solution: 1.11

###

Target: Rhodesain (Trypanosoma brucei rhodesiense)
Sequence (Q95PM0 whole entry): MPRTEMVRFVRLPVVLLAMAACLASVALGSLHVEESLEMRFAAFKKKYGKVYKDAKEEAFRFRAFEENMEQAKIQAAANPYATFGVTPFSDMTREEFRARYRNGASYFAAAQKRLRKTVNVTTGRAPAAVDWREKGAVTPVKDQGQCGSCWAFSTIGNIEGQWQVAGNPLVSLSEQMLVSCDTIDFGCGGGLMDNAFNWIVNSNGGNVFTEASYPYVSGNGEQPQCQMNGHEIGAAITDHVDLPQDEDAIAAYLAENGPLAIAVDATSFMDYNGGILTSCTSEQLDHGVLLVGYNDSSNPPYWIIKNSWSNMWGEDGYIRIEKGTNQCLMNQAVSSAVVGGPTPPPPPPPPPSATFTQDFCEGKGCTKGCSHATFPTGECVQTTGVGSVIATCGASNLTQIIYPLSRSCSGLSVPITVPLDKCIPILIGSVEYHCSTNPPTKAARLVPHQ
experimental-readout: Ki (nM)
Unit nM implied. Number only.

Problem: Data request, read-out Ki, for `CCC[C@H]1CC[C@H](N(Cc2ccc3c(c2)OCO3)c2nc(C#N)nc(N3CCOCC3)n2)CC1`
Solution: 2

###

Tested on: human cathepsin B versus Trypanosoma cruzi cruzipain
Assay: Selectivity ratio of IC50 for reversible inhibition of human cathepsin B to IC50 for reversible inhibition of Trypanosoma cruzi cruzipain
Assay type: toxicity
Conditions: read-out: Ratio IC50
experimental-readout: selectivity ratio
// print number alone

Problem: Data request, read-out selectivity ratio, for `CC(C)(F)C[C@H](N[C@@H](c1ccc(-c2ccc(N3CCNCC3)cc2)cc1)C(F)(F)F)C(=O)NCC#N`
Solution: 1390

Hello, the source for this data is ChEMBL document CHEMBL4321793, in case you need it.
